In this section we review reported MIC values for a set of compounds.
# Tested on: Fusarium oxysporum
# ASSAY_DETAILS: Antimicrobial activity against Fusarium oxysporum assessed as growth inhibition after 24 to 48 hr by two-fold serial dilution method
# Type: functional
Answer with the figure and its unit, nothing else.

Worked cases, answers included:
Enter reported MIC observed with Fusarium oxysporum for Cc1ccc(S(=O)(=O)Oc2ccc(-c3nc4ccccc4c4nc(=O)[nH]n34)cc2)cc1
50 µg/mL

Enter reported MIC observed with Fusarium oxysporum for Cc1ccc(S(=O)(=O)Oc2ccc(-c3nnnn3-c3ccccc3C(=O)O)cc2)cc1
50 µg/mL

Enter reported MIC observed with Fusarium oxysporum for Cc1ccc(S(=O)(=O)Oc2ccc(-c3nc4ccccc4c4nc(=S)[nH]n34)cc2)cc1
25 µg/mL

Enter reported MIC observed with Fusarium oxysporum for Cc1ccc(S(=O)(=O)Oc2ccc(-c3nc4ccccc4c(=O)n3-c3ccc(N)cc3)cc2)cc1
6.25 µg/mL

---
Enter reported MIC observed with Fusarium oxysporum for Cc1ccc(S(=O)(=O)Oc2ccc(-c3nc4ccccc4c(=O)n3C3=NNC(=O)C3/N=N/c3ccccc3)cc2)cc1 (stereo unspecified)
12.5 µg/mL

Enter reported MIC observed with Fusarium oxysporum for C[C@@H]1C[C@@H]([C@H](O)CC2CC(=O)NC(=O)C2)C(=O)[C@@H](C)C1 [CYCLOHEXIMIDE]
3.12 µg/mL

----------
# Tested on: Staphylococcus aureus
# ASSAY_DETAILS: Antimicrobial activity against Staphylococcus aureus ATCC 25923 assessed as diameter of growth inhibition zone at 1 mg/ml after 24 hr by agar diffusion method
# Assay type: functional
# CONDITION_NOTES: ATCC 25923, 24 h, read-out: DIZ
ENDPOINT_NAME: zone of inhibition at 1000 µg/mL (mm)
Give just the number in mm; leave the unit off.

Could you share which zone of inhibition at 1000 µg/mL value was measured for Cc1ccc(S(=O)(=O)Oc2ccc(-c3nc4ccccc4c(=O)n3-c3nccs3)cc2)cc1 ?
38

---
Could you share which zone of inhibition at 1000 µg/mL value was measured for Cc1ccc(S(=O)(=O)Oc2ccc(-c3nc4ccccc4c(=O)n3-c3nc4ccccc4s3)cc2)cc1 ?
38

Could you share which zone of inhibition at 1000 µg/mL value was measured for Cc1ccc(S(=O)(=O)Oc2ccc(-c3nc4ccccc4c(=O)n3-c3ccc(C4=NNC(c5ccccc5)C4)cc3)cc2)cc1 (stereo not drawn) ?
43

----------
# Test system: Pseudomonas savastanoi pv. phaseolicola
# ASSAY_DETAILS: Antimicrobial activity against Pseudomonas syringae pv. phaseolicola GSPB 2828 assessed as diameter of growth inhibition zone at 1 mg/ml after 24 hr by agar diffusion method
# Assay type: functional
# CONDITION_NOTES: GSPB 2828, 24 h, read-out: DIZ
Assign T to entries whose zone of inhibition at 1000 µg/mL meets or exceeds 20 mm; assign F to the rest.

Worked cases, answers included:
Check this molecule for zone of inhibition at 1000 µg/mL at or above 20 mm: Cc1ccc(S(=O)(=O)Oc2ccc(-c3nc4ccccc4c(=O)n3-c3nccs3)cc2)cc1
F

Check this molecule for zone of inhibition at 1000 µg/mL at or above 20 mm: COc1ccc(C2CC(c3ccc(-n4c(-c5ccc(OS(=O)(=O)c6ccc(C)cc6)cc5)nc5ccccc5c4=O)cc3)=NN2)cc1 (configuration not stated)
F

Check this molecule for zone of inhibition at 1000 µg/mL at or above 20 mm: Cc1ccc(S(=O)(=O)Oc2ccc(-c3nc4ccccc4c(=O)n3-c3ccc(C4=NNC(c5ccccc5)C4)cc3)cc2)cc1 (configuration not stated)
F

Here is another molecule to look at.
Check this molecule for zone of inhibition at 1000 µg/mL at or above 20 mm: O=C(N[C@H](CO)[C@H](O)c1ccc([N+](=O)[O-])cc1)C(Cl)Cl [CHLORAMPHENICOL]
T

----------
# Test system: Staphylococcus aureus
# ASSAY_DETAILS: Antimicrobial activity against Staphylococcus aureus ATCC 25923 assessed as growth inhibition after 24 to 48 hr by two-fold serial dilution method
# Type: functional
In this section we review reported MIC values for a set of compounds.
Give just the number in µg/mL; leave the unit off.

Enter reported MIC observed with Staphylococcus aureus for Cc1ccc(S(=O)(=O)Oc2ccc(-c3nc4ccccc4c4nc5ccccc5n34)cc2)cc1
25

Enter reported MIC observed with Staphylococcus aureus for Cc1ccc(S(=O)(=O)Oc2ccc(-c3nnnn3-c3ccccc3C(=O)O)cc2)cc1
12.5

Enter reported MIC observed with Staphylococcus aureus for Cc1ccc(S(=O)(=O)Oc2ccc(C3=Nc4ccccc4C4=NCCN34)cc2)cc1
25

Enter reported MIC observed with Staphylococcus aureus for Cc1ccc(S(=O)(=O)Oc2ccc(-c3nc4ccccc4c(=O)n3-c3ccc(C4=NNC(c5ccccc5)C4)cc3)cc2)cc1 (stereo not drawn)
3.12

Enter reported MIC observed with Staphylococcus aureus for COc1ccc(C2CC(c3ccc(-n4c(-c5ccc(OS(=O)(=O)c6ccc(C)cc6)cc5)nc5ccccc5c4=O)cc3)=NN2)cc1 (stereo not drawn)
3.12

Enter reported MIC observed with Staphylococcus aureus for CC(=O)OCC1=C(C(=O)O)N2C(=O)[C@@H](NC(=O)Cc3cccs3)[C@H]2SC1
6.25

Enter reported MIC observed with Staphylococcus aureus for Cc1ccc(S(=O)(=O)Oc2ccc(-c3nc4ccccc4c4nc(=S)[nH]n34)cc2)cc1
3.12

Enter reported MIC observed with Staphylococcus aureus for O=C(N[C@H](CO)[C@H](O)c1ccc([N+](=O)[O-])cc1)C(Cl)Cl
3.12

----------
# Test system: Pseudomonas savastanoi pv. phaseolicola
# ASSAY_DETAILS: Antimicrobial activity against Pseudomonas syringae pv. phaseolicola GSPB 2828 assessed as diameter of growth inhibition zone at 1 mg/ml after 24 hr by agar diffusion method
# Format: functional
# CONDITION_NOTES: GSPB 2828, 24 h, read-out: DIZ
ENDPOINT_NAME: zone of inhibition at 1000 µg/mL

Worked cases, answers included:
Could you share which zone of inhibition at 1000 µg/mL value was measured for Cc1ccc(S(=O)(=O)Oc2ccc(C(=O)Nc3ccccc3-c3nc4ccccc4[nH]3)cc2)cc1 ?
19 mm

Could you share which zone of inhibition at 1000 µg/mL value was measured for CC(=O)OCC1=C(C(=O)O)N2C(=O)[C@@H](NC(=O)Cc3cccs3)[C@H]2SC1 ?
38 mm

Could you share which zone of inhibition at 1000 µg/mL value was measured for Cc1ccc(S(=O)(=O)Oc2ccc(-c3nc4ccccc4c(=O)n3-c3nc4ccccc4s3)cc2)cc1 ?
19 mm

Next item in the queue.
Could you share which zone of inhibition at 1000 µg/mL value was measured for Cc1ccc(S(=O)(=O)Oc2ccc(C3=Nc4ccccc4C4=NCCN34)cc2)cc1 ?
26 mm

----------
# Test system: Pseudomonas savastanoi pv. phaseolicola
# ASSAY_DETAILS: Antimicrobial activity against Pseudomonas syringae pv. phaseolicola GSPB 2828 assessed as diameter of growth inhibition zone at 1 mg/ml after 24 hr by agar diffusion method
# Type: functional
# CONDITION_NOTES: GSPB 2828, 24 h, read-out: DIZ
In this section we review reported zone of inhibition at 1000 µg/mL values for a set of molecules.
Give just the number in mm; leave the unit off.

Could you share which zone of inhibition at 1000 µg/mL value was measured for Cc1ccc(S(=O)(=O)Oc2ccc(-c3nc4ccccc4c4nc(=S)[nH]n34)cc2)cc1 ?
15

Could you share which zone of inhibition at 1000 µg/mL value was measured for Cc1ccc(S(=O)(=O)Oc2ccc(-c3nc4ccccc4c4nc(=O)[nH]n34)cc2)cc1 ?
38

Could you share which zone of inhibition at 1000 µg/mL value was measured for Cc1ccc(S(=O)(=O)Oc2ccc(-c3nnnn3-c3ccccc3C(=O)O)cc2)cc1 ?
14

Next item in the queue.
Could you share which zone of inhibition at 1000 µg/mL value was measured for Cc1ccc(S(=O)(=O)Oc2ccc(-c3nc4ccccc4c(=O)n3-c3ccc(N)cc3)cc2)cc1 ?
15
